# TEST TARGET: mAChR M4 (Homo sapiens)
# Construct: expressed in transfected cells; host or cells: CHO-K1 cells stably transfected with M4 cDNA and chimeric G-protein Gqi5
# PROTOCOL TEXT: mAChR M4 cell-based functional assay (calcium mobilization, potentiation of EC20 acetylcholine response)
# COND: % ACh maximum at 30 μM
REPORTED PROPERTY: Emax at 30 µM (%)

A. COC1(c2ccc(Cl)cc2)CN(C(=O)c2sc3nnc(C)c(C)c3c2N)C1 [Example B314]
B. Cc1nnc2sc(C(=O)NC3CCN(c4ccc(OC(F)(F)F)cc4)C3)c(N)c2c1C (stereo not drawn) [Example B273]
In: Please tell me which of the two, A or B , has the higher reported Emax at 30 µM value. When you have decided, please share the label of that item.
Out: B

###

# TEST TARGET: mAChR M4 (Homo sapiens, UniProt P08173)
# Construct: expressed in transfected cells; host or cells: CHO-K1 cells stably transfected with M4 cDNA and chimeric G-protein Gqi5
# Sequence (P08173 whole entry): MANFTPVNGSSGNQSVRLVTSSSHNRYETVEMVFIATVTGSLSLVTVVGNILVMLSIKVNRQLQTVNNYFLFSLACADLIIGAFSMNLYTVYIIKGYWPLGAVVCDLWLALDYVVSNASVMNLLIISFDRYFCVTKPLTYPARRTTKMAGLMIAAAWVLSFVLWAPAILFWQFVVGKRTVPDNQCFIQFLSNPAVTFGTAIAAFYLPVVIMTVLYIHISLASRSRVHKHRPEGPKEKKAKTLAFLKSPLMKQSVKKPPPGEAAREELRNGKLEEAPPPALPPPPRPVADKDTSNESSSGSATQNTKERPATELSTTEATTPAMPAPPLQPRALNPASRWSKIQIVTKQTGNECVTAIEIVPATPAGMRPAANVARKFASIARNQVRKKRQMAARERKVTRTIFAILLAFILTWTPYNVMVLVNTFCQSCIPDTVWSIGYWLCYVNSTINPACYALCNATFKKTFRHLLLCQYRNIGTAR
# PROTOCOL TEXT: mAChR M4 cell-based functional assay (calcium mobilization, potentiation of EC20 acetylcholine response)
# COND: % ACh maximum at 30 μM
REPORTED PROPERTY: Emax at 30 µM (%)

COMPOUND	TEST TARGET	RESULT UNIT	Emax at 30 µM
Cc1nnc2sc(C(=O)NCC(C)(C)O)c(N)c2c1C	mAChR M4 (Homo sapiens, UniProt P08173)	%	56
Cc1nnc2sc(C(=O)NCc3ccc4c(c3)CN(C(C)C)C4=O)c(N)c2c1C	mAChR M4 (Homo sapiens, UniProt P08173)	%	61
Cc1ccc(S(=O)(=O)N2CCCN(C(=O)c3sc4nnc(C)c(C)c4c3N)CC2)cc1	mAChR M4 (Homo sapiens, UniProt P08173)	%	48

I. Cc1nnc2sc(C(=O)N3CCC(NC(=O)C4CC4c4ccccc4)C3)c(N)c2c1C (centres unmarked)
II. Cc1nnc2sc(C(=O)N3CCc4nn(C)cc4C3)c(N)c2c1C
In: Kindly identify which of I and II has the larger recorded Emax at 30 µM value. Lab note: record the label of whichever item you select.
Out: I

###

# TEST TARGET: mAChR M4 (Homo sapiens, UniProt P08173)
# Construct: expressed in transfected cells; host or cells: CHO-K1 cells stably transfected with M4 cDNA and chimeric G-protein Gqi5
# PROTOCOL TEXT: mAChR M4 cell-based functional assay (calcium mobilization, potentiation of EC20 acetylcholine response)
# COND: mAChR M4 cell-based functional assay; >10,000 estimated for low potency compounds without plateau; read-out: EC50
REPORTED PROPERTY: EC50 (nM)

MOLECULE	EC50 / nM
Cc1nnc2sc(C(=O)NC3CN(C(=O)Oc4ccc(N=[N+]=[N-])cc4)C3)c(N)c2c1C	15

P. Cc1nnc2sc(C(=O)NCc3ccc(F)cc3)c(N)c2c1C
Q. Cc1nnc2sc(C(=O)Nc3nccs3)c(N)c2c1C
R. Cc1nnc2sc(C(=O)NCc3ccc(O)cc3)c(N)c2c1C
S. Cc1nnc2sc(C(=O)NC3CN(C(=O)Nc4ccccc4)C3)c(N)c2c1C
In: # rank_down: sort by EC50, max first List the labels, following the order given in the request.
Out: Q, P, R, S

a. Cc1nnc2sc(C(=O)N3CC(c4ccccc4)C3)c(N)c2c1C
b. Cc1nnc2sc(C(=O)N3CC(F)(c4ccc(S(=O)(=O)C(F)(F)F)cc4)C3)c(N)c2c1C
In: Given a and given b , which shows the smaller recorded EC50? Give the label of your selection.
Out: a
(a: 160 nM, b: 4200 nM)
